system: OVCAR-8 ovarian; experiment: NCI-60 one-dose screen, 48 h (100 = growth as untreated, 0 = no growth, -100 = all killed); conditions: 10 µM unless noted
This is part of a sample that, as a whole, favours compounds with a hit. Of some 83,000 tested, about 20% had one in any assay.
List of growth values.
Numeric answer only, unit % assumed.

# returns recorded growth (system: OVCAR-8 ovarian) for "COc1cc(OC)c(C(=O)/C=C/c2cccc(C#N)c2)c(OC)c1" 7.46

# returns recorded growth (system: OVCAR-8 ovarian) for "CCn1cc(C(=O)O)c(=O)c2cc(F)c(N3CCN(S(=O)(=O)c4ccc(OC)c(OC)c4)CC3)cc21" 102

# returns recorded growth (system: OVCAR-8 ovarian) for "C=C1C(=O)O[C@H]2[C@H]1CC/C(Cn1cc(-c3ccc(N)cc3)nn1)=C\CC[C@@]1(C)O[C@@H]21" -5.97

# returns recorded growth (system: OVCAR-8 ovarian) for "O=S(=O)(c1ccccc1)n1ccc(-c2ccc3c(c2)CCO3)n1" 84

# returns recorded growth (system: OVCAR-8 ovarian) for COc1cc2c(cc1OC)C1(C)N(CC2)C(=O)OC1(C)C (stereo unspecified) 98.4

# returns recorded growth (system: OVCAR-8 ovarian) for "Clc1nc(-c2cccnc2)nc2sc3c(c12)CCCCCC3" 103

# returns recorded growth (system: OVCAR-8 ovarian) for "Cn1c(-c2nonc2NC(=O)c2ccc(F)cc2)nc2ccccc21" 96.6

# returns recorded growth (system: OVCAR-8 ovarian) for "COc1cc(OC)c(C(=O)/C=C/c2cccc(C(F)(F)F)c2)c(OC)c1" 14.1

# returns recorded growth (system: OVCAR-8 ovarian) for "c1ccc(CCn2nnc3c(Nc4ccc(N5CCOCC5)cc4)ncnc32)cc1" 86.2

# returns recorded growth (system: OVCAR-8 ovarian) for COc1cc(C2CC(c3c(C)[n+]([O-])c4ccccc4[n+]3[O-])=NN2)cc(OC)c1OC (stereo unspecified) 109

# returns recorded growth (system: OVCAR-8 ovarian) for CCC(c1ccc(OC)cc1)C(CC)c1ccc(O)c(CN2CCCC2)c1 (stereo unspecified) 36.7

# returns recorded growth (system: OVCAR-8 ovarian) for O=C(c1ccccc1)C(Cl)C(Cl)c1ccccc1 (stereo unspecified) -1.77

# returns recorded growth (system: OVCAR-8 ovarian) for CC1CCc2c(sc(NC(=O)CSc3nnc4ccccn34)c2C(N)=O)C1 (stereo unspecified) 109

# returns recorded growth (system: OVCAR-8 ovarian) for "O=Nc1c(-c2c(O)[nH]c3ccc([N+](=O)[O-])cc23)[nH]c2ccc(O)cc12" 7.71

# returns recorded growth (system: OVCAR-8 ovarian) for "O=S=Nc1ccc([N+](=O)[O-])cc1" 104

# returns recorded growth (system: OVCAR-8 ovarian) for "COc1cc(-c2cc(/C=C3\CCCCC3=O)[nH]n2)cc(OC)c1OC" 102

# returns recorded growth (system: OVCAR-8 ovarian) for "O=C(O)c1ccc(-n2cc(CNc3ccc(C(F)(F)F)cc3)c(-c3ccccc3)n2)cc1" 79.8

====

test system: DU-145 prostate; assay: NCI-60 one-dose screen, 48 h (100 = growth as untreated, 0 = no growth, -100 = all killed); conditions: 10 µM unless noted
The panel holds about 83,000 compounds, 20% with a hit somewhere; the sample as a whole holds those more often.
measurement_name: growth (%)
Numeric answer only, unit % assumed.

A selection of reference data follows.
O=C(CN1CCOCC1)Nc1ccc(-c2nc3ccccc3s2)cc1    109
COc1cccc(NC(=O)c2sc3nc4c(cc3c2N)CCCC4)c1    13
c1ccc([P+](CCC[P+](c2ccccc2)(c2ccccc2)c2ccccc2)(c2ccccc2)c2ccccc2)cc1    86.7
CCOC(=O)CC(C#N)(CC(=O)OCC)C(=O)OCC    113
COc1ccc(Cn2cc(COc3cc(/C=C/C(=O)c4cc(OC)c(OC)c(OC)c4)ccc3OC)nn2)cc1    88.5
COc1ccc(C(=O)/C=C/c2ccc(/C=C/c3cc(OC)c(OC)c(OC)c3)cc2)cc1    68.4

# input compound: "CCc1c(C(=O)Nc2ccc3ccccc3c2)[nH]c(C)c1C(C)=O" ; wanted: its growth 107

# input compound: "COc1cccc2cc(-c3cc4ccccc4[nH]3)c(=NC(=O)c3ccc(Cl)cc3)oc12" ; wanted: its growth 85.5

# input compound: "O=C(C[N+](=O)[O-])c1ccc(Cl)cc1" ; wanted: its growth 111

# input compound: "Cc1cc(-c2ccccc2)c(C)n1Cc1ccc(Cl)cc1" ; wanted: its growth 86.6

====

Tested on: M14 melanoma
Experiment: NCI-60 one-dose screen, 48 h
Settings: 10 µM unless noted
Protocol: Growth inhibition of the M14 human tumor cell line is measured as a screen for anti-cancer activity. Cells are grown in 96 well plates and exposed to the test compound for 48 hours. Compounds are tested at a single concentration, which is 10^-5 M for most compounds. The reported endpoint is percent growth (GI% or GIPRCNT), where numbers from 0 - 100% represent growth inhibition, and numbers from -100% - 0 represent cell death. For example, a value of 40 represents 60% growth inhibition. […]
About 83,000 compounds went through this panel and 20% of them were active in at least one assay; those are over-represented in the sample as a whole. Active and inactive are the calls of the source. How the source made its calls: active means growth percent below 10; inactive means the rest.
Output constraint: value belongs to T for active, F for inactive

Solved cases below.
O=[N+]([O-])c1c(S(=O)(=O)O)cc2cc(S(=O)(=O)O)ccc2c1[N+](=O)[O-]    F
O=S(=O)(NCCCNc1cc(-c2cn(-c3ccccc3)nc2-c2cccc(O)c2)ccn1)c1cccc2ccccc12    F
O=P([O-])(O)OP(=O)([O-])O.[NH-][C@H]1CCCC[C@@H]1[NH-].[OH-].[OH-].[Pt+4]    F

Tell me the assay call for "COc1ccc(/C=C/C(=O)OCC(=O)NNC(=O)c2ccccc2)cc1OC" please. F

Tell me the assay call for Clc1ccc2c(c1)NC1(CCSc3ccccc31)n1nccc1-2 (stereo unspecified) please. F

Tell me the assay call for "Nc1c(C(=O)Nc2ccccc2)sc2nc3c(cc12)CCCCC3" please. T

Tell me the assay call for "COc1cc(Br)c(OC)cc1Br" please. F

====

test system: MOLT-4 leukemia; assay: NCI-60 one-dose screen, 48 h (100 = growth as untreated, 0 = no growth, -100 = all killed); details: 10 µM unless noted
The panel holds about 83,000 compounds, 20% with a hit somewhere; the sample as a whole holds those more often.
List of growth values.
Numeric answer only, unit % assumed.

A selection of reference data follows.
O=C(NNC(=S)Nc1ccccc1)c1ccccn1    13.8
COc1ccc(/C=C2\Oc3cc(OCCN4CCCC4)ccc3C2=O)c(OC)c1    86.7
O=C(CN1CCOCC1)Nc1ccc(-c2nc3ccccc3s2)cc1    99.4
O=C(/C=C/CN1CCOCC1)Nc1cc2c(Nc3ccc(F)c(Cl)c3F)ncnc2cc1OCCOC(F)F    69.5

# input molecule: Nc1c(C(=O)Nc2cccc([N+](=O)[O-])c2)sc2nc3c(cc12)C(O)CCC3 (stereo unspecified) ; wanted: its growth 42.2

# input molecule: "O=C(OCCCCOC(=O)n1cnc2ccccc21)n1cnc2ccccc21" ; wanted: its growth 86.2

# input molecule: "Nc1c(C(=O)Nc2ccccc2)sc2nc3c(cc12)CN(Cc1ccccc1)CC3" ; wanted: its growth 92.3

# input molecule: "Cn1c(-c2nonc2NC(=O)c2ccc(F)cc2)nc2ccccc21" ; wanted: its growth -1.74

# input molecule: "O=c1[nH]c(-c2cn(-c3ccc(Cl)cc3)nn2)nc2ccccc12" ; wanted: its growth 93.7

# input molecule: "CCN(C(=O)c1cc2ccccc2[nH]1)[C@H]1CCC[C@@H](NCc2ccc(OC)cc2)C1" ; wanted: its growth 70.2

====

system: M14 melanoma; test: NCI-60 one-dose screen, 48 h; conditions: 10 µM unless noted
Compounds without any hit were thinned out: in the full panel of roughly 83,000, 20% have a hit. Activity calls are given as the source filed them. Rule for the calls: active = growth percent below 10; inactive = the rest.
Output constraint: value belongs to active, inactive

Solved cases below.
Nc1c(C(=O)Nc2cccc(C(F)(F)F)c2)sc2nc3c(cc12)C(O)CCC3 (centres undefined)    inactive
CCCCCCCCCCn1cc[n+](C)c1    inactive
CC[C@H](C)[C@H]1NC(=O)[C@@H](N[C@](C)(O)[C@@H](N)CC(C)C)[C@@H](C)OC(=O)[C@H](Cc2ccc(OC)cc2)N(C)C(=O)[C@@H]2CCCN2C(=O)[C@H](CC(C)C)NC(=O)[C@@H](C)C(=O)[C@H](C(C)C)OC(=O)C[C@@H]1O    active
CCNc1nc(N2CC(=O)Nc3cc(OC)ccc32)c2ccccc2n1    active
CCC1CCc2nc3sc(C(=O)Nc4ccccc4F)c(N)c3cc2C1 (centres undefined)    inactive

Tell me the assay call for "COc1ccc(Cn2cc(COc3cc(/C=C/C(=O)c4cc(OC)c(OC)c(OC)c4)ccc3OC)nn2)cc1" please. inactive

Tell me the assay call for "COc1ccc(/C=C/c2nc(N3CCOCC3)c3nc(Cl)c(Cl)cc3n2)cc1OC" please. inactive

Tell me the assay call for "CN1C(=O)[C@H]2c3c1cccc3[C@@]13NC(=O)O[C@H]1[C@H](CCC3(C)C)C2(C)C" please. inactive

Tell me the assay call for "CC(C)(C)c1cc(-c2nc3ccc(N4CCN(CCO)CC4)cc3[nH]2)cc(C(C)(C)C)c1O" please. active

Tell me the assay call for "Cc1cc(C)c2c(=O)[nH]c(SCC(=O)Nc3cccc(S(=O)(=O)N(C)C)c3)nc2n1" please. inactive
